target: Neprilysin (Oryctolagus cuniculus, UniProt P08049); assay: Inhibitory activity against big ET-1 of Neutral endopeptidase
pIC50: −log10 of the molar value.
Rule: pIC50 under 9 gives rule not met, otherwise rule met.

| molecule | label |
| --- | --- |
| CC(C)C[C@H](C(=O)NO)C(=O)N[C@@H](C)C(=O)NCC(N)=O | rule not met |
| CC(C)C(C(=O)NO)C(=O)NC(CC(N)=O)C(=O)O (stereo not given) | rule not met |
| CC(C)CC(C(=O)NO)C(=O)NC(Cc1c[nH]c2ccccc12)C(=O)O (stereo not given) | rule met |
| CC(C)C(CC(=O)NO)C(=O)NCCC(=O)O (stereo not given) | rule not met |

====

Target: Endothelin-converting enzyme 1 (Homo sapiens, UniProt P42892)
Sequence (P42892 whole entry): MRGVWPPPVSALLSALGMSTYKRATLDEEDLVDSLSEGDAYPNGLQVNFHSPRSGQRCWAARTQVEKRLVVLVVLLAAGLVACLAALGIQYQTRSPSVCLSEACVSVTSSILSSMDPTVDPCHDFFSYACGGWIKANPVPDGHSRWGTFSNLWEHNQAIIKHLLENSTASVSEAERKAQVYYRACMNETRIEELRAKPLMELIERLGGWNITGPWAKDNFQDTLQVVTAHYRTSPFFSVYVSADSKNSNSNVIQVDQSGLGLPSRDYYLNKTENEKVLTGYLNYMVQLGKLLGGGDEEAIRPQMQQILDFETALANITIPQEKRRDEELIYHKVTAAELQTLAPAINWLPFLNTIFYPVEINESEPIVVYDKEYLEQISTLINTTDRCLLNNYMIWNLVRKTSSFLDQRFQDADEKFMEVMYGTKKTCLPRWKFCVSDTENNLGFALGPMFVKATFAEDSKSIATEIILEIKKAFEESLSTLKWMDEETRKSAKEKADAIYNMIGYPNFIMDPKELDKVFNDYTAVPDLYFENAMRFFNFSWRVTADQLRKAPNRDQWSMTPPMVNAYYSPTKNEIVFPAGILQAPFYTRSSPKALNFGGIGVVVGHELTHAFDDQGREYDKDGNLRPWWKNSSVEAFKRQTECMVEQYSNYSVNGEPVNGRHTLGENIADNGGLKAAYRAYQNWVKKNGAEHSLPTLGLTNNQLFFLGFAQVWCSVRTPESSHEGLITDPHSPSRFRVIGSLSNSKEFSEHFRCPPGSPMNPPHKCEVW
Experiment: Inhibitory activity against human bronchiolar smooth muscle Endothelin-converting enzyme 1
Format: tissue-based, Muscle tissue
pIC50: −log10 of the molar value.
recorded_endpoint: pIC50

| compound | relation_operator | value |
| --- | --- | --- |
| CC(C)C(CC(=O)NOCc1ccccc1)C(=O)NC(CC(N)=O)C(N)=O (stereo unspecified) | < | 5.00 |
| CC(C)C(CC(=O)NO)C(=O)NCCC(=O)O (stereo unspecified) | = | 6.72 |
| O=C(O)CNC(=O)C(CS)Cc1ccccc1 (stereo unspecified) [THIORPHAN] | = | 8.10 |
| CC(C)C(CC(=O)NO)C(=O)NC(CC(N)=O)C(=O)O (stereo unspecified) | = | 6.82 |
| CC(C)C(CC(=O)NO)C(=O)NC(CC(N)=O)C(N)=O (stereo unspecified) | = | 5.52 |
| O=C(O)CCNC(=O)CC(=O)NO | = | 5.52 |

====

molecular target: Thermolysin (Bacillus thermoproteolyticus, UniProt P00800)
Sequence (P00800 233-548 limits assumed): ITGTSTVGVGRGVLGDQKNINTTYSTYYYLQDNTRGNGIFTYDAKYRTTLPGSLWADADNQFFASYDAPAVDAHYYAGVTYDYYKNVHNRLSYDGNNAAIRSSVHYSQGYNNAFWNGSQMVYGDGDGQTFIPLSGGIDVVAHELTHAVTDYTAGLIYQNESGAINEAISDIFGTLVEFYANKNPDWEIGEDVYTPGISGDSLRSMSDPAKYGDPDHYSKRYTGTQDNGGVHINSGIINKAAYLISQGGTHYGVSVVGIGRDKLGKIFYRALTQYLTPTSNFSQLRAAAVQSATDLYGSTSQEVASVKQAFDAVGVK
pIC50: −log10 of the molar value.
Rule: pIC50 under 7 gives no (0), otherwise yes (1).

| compound | label |
| --- | --- |
| CC(C)C[C@H](NP(=O)(O)O[C@@H]1O[C@@H](C)[C@H](O)[C@@H](O)[C@H]1O)C(=O)N[C@@H](Cc1c[nH]c2ccccc12)C(=O)O | yes (1) |
| CC(C)C(C(=O)NO)C(=O)NCCC(=O)O (configuration not stated) | no (0) |
| CC(C)C(C(=O)NO)C(=O)NC(Cc1c[nH]c2ccccc12)C(=O)O (configuration not stated) | yes (1) |
| CC(C)C(C(=O)NO)C(=O)NC(Cc1c[nH]c2ccccc12)C(N)=O (configuration not stated) | yes (1) |
| CC(C)C[C@H](C(=O)NO)C(=O)N[C@@H](C)C(=O)NCC(N)=O | no (0) |
| CC(C)CC(C(=O)NO)C(=O)NC(Cc1c[nH]c2ccccc12)C(N)=O (configuration not stated) | yes (1) |
| CC(C)C(CC(=O)NO)C(=O)NC(Cc1c[nH]c2ccccc12)C(=O)O (configuration not stated) | no (0) |

====

Biological target: UniProt:P08049
Sequence (P08049 whole entry): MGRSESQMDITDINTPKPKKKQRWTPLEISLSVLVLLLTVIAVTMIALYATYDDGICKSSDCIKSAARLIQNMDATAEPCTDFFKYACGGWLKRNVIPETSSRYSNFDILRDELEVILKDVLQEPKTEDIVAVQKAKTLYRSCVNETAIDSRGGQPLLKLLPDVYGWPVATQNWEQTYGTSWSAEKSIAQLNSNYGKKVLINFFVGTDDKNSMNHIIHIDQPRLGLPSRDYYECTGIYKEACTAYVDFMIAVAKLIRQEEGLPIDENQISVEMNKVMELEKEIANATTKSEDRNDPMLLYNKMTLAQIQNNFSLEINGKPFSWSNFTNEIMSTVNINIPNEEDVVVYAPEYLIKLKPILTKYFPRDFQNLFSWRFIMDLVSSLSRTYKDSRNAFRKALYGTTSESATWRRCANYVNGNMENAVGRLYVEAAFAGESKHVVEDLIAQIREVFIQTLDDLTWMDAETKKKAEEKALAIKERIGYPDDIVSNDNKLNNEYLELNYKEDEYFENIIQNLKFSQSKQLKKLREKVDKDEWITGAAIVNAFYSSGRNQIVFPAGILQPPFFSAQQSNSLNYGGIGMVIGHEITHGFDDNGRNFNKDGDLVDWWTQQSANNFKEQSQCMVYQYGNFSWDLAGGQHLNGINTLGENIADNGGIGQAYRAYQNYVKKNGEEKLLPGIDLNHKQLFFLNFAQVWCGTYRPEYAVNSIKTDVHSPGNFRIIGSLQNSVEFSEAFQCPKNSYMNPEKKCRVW
Assay: Inhibitory activity against big ET-1 of Neutral endopeptidase
pIC50: −log10 of the molar value. Residues, ends and D or L forms follow the SMILES beside them. *: point of attachment. Cbz = O=C(OCc1ccccc1)*; NHOH = ON*
Rule: pIC50 under 8 gives false, otherwise true.

| molecule | label |
| --- | --- |
| CC(C)C(CNO)C(=O)NC(Cc1c[nH]c2ccccc12)C(=O)O (stereo not given) | false |
| CC(C)C(C(=O)NO)C(=O)NC(Cc1c[nH]c2ccccc12)C(=O)O (stereo not given) | true |
| CC(C)C(C(=O)NO)C(=O)NC(Cc1c[nH]c2ccccc12)C(N)=O (stereo not given) | true |
| CCCCC[C@H](CC(=O)NO)C(=O)N[C@H](C(=O)N1CCC[C@H]1CO)C(C)C | false |
| CC(C)C[C@H](NP(=O)(O)O[C@@H]1O[C@@H](C)[C@H](O)[C@@H](O)[C@H]1O)C(=O)N[C@@H](Cc1c[nH]c2ccccc12)C(=O)O | true |
| CC(C)C(CC(=O)NO)C(=O)NC(CC(N)=O)C(=O)O (stereo not given) | false |
| CC(C)C[C@H](NC(=O)[C@@H]1CCCN1C(=O)OCc1ccccc1)C(=O)NCC(=O)NO (Cbz-Pro-Leu-Gly-{NHOH}) | false |

====

Target: Neprilysin (Oryctolagus cuniculus, UniProt P08049)
Sequence (P08049 whole entry): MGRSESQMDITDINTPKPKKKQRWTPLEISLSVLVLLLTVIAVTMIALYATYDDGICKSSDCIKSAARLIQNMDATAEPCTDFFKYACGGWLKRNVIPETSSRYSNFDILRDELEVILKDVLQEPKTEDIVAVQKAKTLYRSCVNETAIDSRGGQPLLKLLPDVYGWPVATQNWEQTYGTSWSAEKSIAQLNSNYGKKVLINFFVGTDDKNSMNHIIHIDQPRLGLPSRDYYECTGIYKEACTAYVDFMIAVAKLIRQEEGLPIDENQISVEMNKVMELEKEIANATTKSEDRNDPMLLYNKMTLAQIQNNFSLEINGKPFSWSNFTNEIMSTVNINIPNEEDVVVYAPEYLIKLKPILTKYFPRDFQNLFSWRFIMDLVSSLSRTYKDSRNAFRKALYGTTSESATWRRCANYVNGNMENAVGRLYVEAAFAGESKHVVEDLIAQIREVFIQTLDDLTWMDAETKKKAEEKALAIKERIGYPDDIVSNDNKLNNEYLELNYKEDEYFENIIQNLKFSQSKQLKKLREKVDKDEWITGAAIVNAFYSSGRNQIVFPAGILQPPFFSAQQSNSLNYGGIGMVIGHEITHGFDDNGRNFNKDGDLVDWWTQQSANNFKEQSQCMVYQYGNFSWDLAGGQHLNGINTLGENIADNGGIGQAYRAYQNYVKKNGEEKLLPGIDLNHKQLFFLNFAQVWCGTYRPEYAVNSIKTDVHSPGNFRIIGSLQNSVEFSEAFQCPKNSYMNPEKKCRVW
Experiment: Inhibitory activity against Leu-enkeph of Neutral endopeptidase
Listed next: entries and their corresponding IC50.
recorded_endpoint: IC50 (nM)

| compound | target_or_test_system | unit_spec | value |
| --- | --- | --- | --- |
| CC(C)C(C(=O)NO)C(=O)NC(Cc1c[nH]c2ccccc12)C(=O)O (stereo not given) | Neprilysin (Oryctolagus cuniculus, UniProt P08049) | nM | 0.4 |
| CC(C)C(CC(=O)NO)C(=O)NC(CC(N)=O)C(=O)O (stereo not given) | Neprilysin (Oryctolagus cuniculus, UniProt P08049) | nM | 170 |
| C[C@H](NC(=O)[C@@H](CC(=O)NO)Cc1ccccc1)C(=O)O | Neprilysin (Oryctolagus cuniculus, UniProt P08049) | nM | 1 |
| CC(C)CC(C(=O)NO)C(=O)NC(Cc1c[nH]c2ccccc12)C(N)=O (stereo not given) | Neprilysin (Oryctolagus cuniculus, UniProt P08049) | nM | 2 |
| CC(C)C(C(=O)NO)C(=O)NCCC(=O)O (stereo not given) | Neprilysin (Oryctolagus cuniculus, UniProt P08049) | nM | 2 |
